assay: modulators of S6 phosphorylation in cells, primary screen, cell-based, A549, cytoblot, luminescence, serum-stimulated (AID 1158); details: A549 phospho-S6 cytoblot, 5 h, higher = more signal;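 also: serum-stimulated A549 lung adenocarcinoma cells; signal is phosphorylated S6 detected by cytoblot immunostaining with HRP secondary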
Measurement Name: z-score

Below, 8 compounds whose answers are already recorded.
Lab book: z-score of `COc1cccc([C@H]2Oc3ccc(OC)cc3C(=NOCC[C@@H]3C=C[C@H](OC(C)=O)[C@@H](COC(C)=O)O3)[C@@H]2O)c1` noted as -1.04

For record Cc1cc2c(nc1C)CCCCN2CC(O)CN1CCCc2nc(-c3ccc(Br)cc3)ccc21 (stereo unspecified) the listed z-score is 0.75

Lab note: measured z-score of `CC(CCN1CCc2nc(-c3ccccc3)c(-c3ccccc3)cc2C1)=NO[C@@H](C)c1cc(-c2c(C)cc(C)cc2C)no1` was 0.831

Looking up `O=C1C2=CC[C@H]3C(=O)N(Cc4ccccc4)C(=O)[C@H]3[C@H]2[C@H](O)[C@@H]2O[C@H]12` , I see its z-score listed as -0.451

Kindly note the recorded z-score for COC(=O)[C@H](C)NC(=O)CCC1CC(OC(=O)NCc2cccc3ccccc23)CC2(CCCC(COC(=O)NCc3cccc(C(F)(F)F)c3)O2)O1 (stereo partly specified) , which is 1.1

COC(=O)[C@H](C)NC(=O)CCC1CC(OC(=O)NCc2cccc3ccccc23)CC2(CCCC(COC(=O)NCCOc3ccccc3)O2)O1 (stereo partly specified) has a reported z-score of 0.152

// `C#CCCCON=C1C[C@@H](O)[C@@H](O)[C@@H]2[C@@H]3C(=O)N(C[C@@H]4CCCO4)C(=O)[C@@H]3CC[C@@H]12` : z-score value = -0.53

Measured z-score, `CCOC(=O)NN=C1C[C@@H](O)[C@@H](O)[C@@H]2[C@@H]3C(=O)N(CC)C(=O)[C@@H]3CC[C@H]12` : -0.404

Now consider a different compound.
GET /value?item= `CC[C@@H](c1ccccc1)n1c(=O)n2n(c1=O)[C@H]1[C@H](O)[C@@H]3O[C@@H]3C(=NOCc3ccccc3)[C@H]1CC2` &field=z-score returns 0.3

---

biological target: Torsin-1A-interacting protein 1 (Homo sapiens); test: LAP1 binders from COS7 cell lysate, primary screen, small-molecule microarray, 635/667 nm fluorescence (AID 1116); settings: COS7-hLAP1 lysate binding, 635 nm fluorescence, higher = more signal
Measurement Name: composite z-score
No unit in the answer, please; the number alone is enough.

Previously resolved entries follow.
Recorded composite z-score (compound `O=C1[C@H]2[C@H]3[C@H](O)[C@H](O)CC(=NOCc4ccccc4)[C@H]3CC[C@H]2C(=O)N1C1CCCCC1` ): -0.106

Data point: COC(=O)[C@H](C)NC(=O)CCC1CC(OC(=O)NCc2cccc3ccccc23)CC2(CCCC(COC(=O)NCc3ccccc3)O2)O1 (stereo partly specified) ; composite z-score = 0.177

Documented composite z-score of `CC(C)CON=C1[C@H]2CCn3c(=O)n(C)c(=O)n3[C@H]2[C@H](O)[C@@H]2O[C@H]12` : 0.18

// field: composite z-score; key: `CC(CCN1CCCCc2nc(C)c(C)cc21)=NOC[C@@H](O)[C@H]1O[C@@H]2OC(C)(C)O[C@@H]2[C@H]1O` ; value = -0.219

Briefly, composite z-score measured for CC(C)=NOC(C)CN1CCCc2nc(C)c(C)cc21 (stereo unspecified) : -0.0182

composite z-score reading for `COc1ccc(COC(=O)NN=C2C[C@@H](O)[C@@H](O)[C@@H]3[C@@H]4C(=O)N([C@@H](C)c5ccccc5)C(=O)[C@@H]4CC[C@@H]23)cc1` : 0.51

Continuing:
The reported composite z-score of the compound CCOC(=O)[C@H](Cc1ccccc1)NC(=O)CCC1CC(OC(=O)NCCc2ccc(F)cc2)CC2(CCCC(COC(=O)NCc3cccc(C(F)(F)F)c3)O2)O1 (stereo partly specified) was 0.109

For this compound ( `CC=CC1=C(CO)[C@H](O)[C@H]2O[C@H]2[C@@H]1O` ), measured composite z-score is -0.193

Value of composite z-score reported for the compound `CC(C)[C@H](NC(=O)OC(C)(C)C)[C@@H](O)CC(=O)C(C)(C)C` is 0.161

`COc1cccc([C@H](O)Cn2cc(-c3ccc(CON=C(C)C)cc3)nn2)c1` yielded composite z-score of 0.56

Please fill in: composite z-score reported for `O=C1C[C@@H](O)[C@@H](O)[C@@H]2[C@@H]3C(=O)N(C4CCCCC4)C(=O)[C@@H]3CC[C@@H]12` = 0.462

// recorded composite z-score for CO[C@@H](C(C)C)[C@@H](C)C1OC(=O)CC1O (stereo partly specified) : -0.214

Reported composite z-score of `CC(CCN1CCCc2nc(C)c(C)cc21)=NOC[C@@H](C)[C@H](OCc1ccccc1)C(C)C` : -0.187

Please fill in: composite z-score reported for `CCN1C(=O)[C@H]2[C@H]3[C@H](O)[C@H](O)CC(=NO[C@@H](C)c4cc(-c5c(C)cc(C)cc5C)no4)[C@@H]3CC[C@H]2C1=O` = 0.952

Reported composite z-score ( `C=CC[C@@H]1C=C[C@H](ON=CC[C@@H]2C=C[C@H](OC(C)=O)[C@@H](COC(C)=O)O2)[C@@H](CO)O1` ) = 0.223

Reported composite z-score ( `CC(C)=CCCC(C)=CCON=C1[C@H]2CCn3c(=O)n(-c4ccccc4)c(=O)n3[C@H]2[C@H](O)[C@@H]2O[C@H]12` ) = 0.458

---

test: basal 3T3-L1 adipocyte mitochondrial potential changes, profiling panel, cell-based, JC-1 fluorescence, 3T3-L1 adipocytes, 24 h, 100 nL compound (AID 1168); details: JC-1 mitochondrial fluorescence, higher = more signal, called active from +8 up or from −8 down; also: test concentration not given here
Measurement Name: z-score
Kindly provide the number alone.

The examples below pair each entry with its known result.
What the record says about `COC(=O)CC=C[C@@H](C)[C@@H](C=NOC[C@@H](O)COCc1ccco1)NS(=O)(=O)c1ccc(C)cc1` : z-score is 0.0134

Item: `O=C1C=C[C@@H](O)[C@@H]2[C@@H]3C(=O)N(Cc4ccc5c(c4)OCO5)C(=O)[C@@H]3CC[C@@H]12` | z-score: -0.0146

For this compound ( `CC(CCN1CCCc2nc(C)c(C)cc21)=NO[C@H](C)c1cn([C@H](CO)Cc2ccccc2)nn1` ), measured z-score is -2.16

Others:
GET /value?item= `O=C1[C@H]2[C@H]3[C@H](O)[C@H](O)CC(=NO[C@@H]4O[C@H](CO)[C@@H](O)[C@H](O)[C@H]4O)[C@H]3CC[C@H]2C(=O)N1c1ccc(F)cc1F` &field=z-score returns -0.35

Value of measured z-score for the entry `O=C1[C@H]2[C@H]3[C@H](O)[C@H](O)CC(=NO[C@@H]4O[C@H](CO)[C@@H](O)[C@H](O)[C@H]4O)[C@@H]3CC[C@H]2C(=O)N1c1cccc(Oc2ccccc2)c1` : -0.349

For record `C#CCCCON=C1C[C@@H](O)[C@@H](O)[C@@H]2[C@@H]3C(=O)N(C[C@@H]4CCCO4)C(=O)[C@@H]3CC[C@@H]12` the listed z-score is 0.27

Entry CCOC(=O)[C@H](CC(C)C)NC(=O)CCC1CC(OC(=O)NCCc2ccc(F)cc2)CC2(CCCC(COC(=O)NCCOC)O2)O1 (some centres undefined) , z-score reported as -0.459

Notebook: `COc1ccc2c(c1)O[C@@H](c1cccc(C(F)(F)F)c1)[C@H](O)C2=O` , z-score read as 0.0155

z-score recorded for this compound, `O=C1C=C[C@@H](O)[C@@H]2[C@@H]3C(=O)N(C4CCCCC4)C(=O)[C@@H]3CC[C@@H]12` , is -0.58

Reported z-score ( `O=C1C2=CC[C@H]3C(=O)N(c4ccc(F)cc4F)C(=O)[C@H]3[C@H]2[C@H](O)[C@@H]2O[C@H]12` ) = -0.191

Kindly note the recorded z-score for `O=C1C=C[C@@H](O)[C@@H]2[C@@H]3C(=O)N(Cc4ccccc4)C(=O)[C@@H]3CC[C@@H]12` , which is -0.125

compound `C=CC[C@@H]1C=C[C@H](ON=C(C)CCN2CCCc3nc(C)c(C)cc32)[C@@H](CO)O1` , z-score observed: 0.0489

Given item `CCCNC(=O)OC[C@H]1O[C@H](CCON=C2C[C@@H](O)[C@@H](O)[C@@H]3[C@@H]4C(=O)N(CC)C(=O)[C@@H]4CC[C@@H]23)C=C[C@@H]1Oc1ccc(OC)cc1` , the value recorded as its z-score is -0.245

Data point: `CC(C)=CCCC(C)=CCON=C1C[C@@H](O)[C@@H](O)[C@@H]2[C@@H]3C(=O)N(c4cccc(Oc5ccccc5)c4)C(=O)[C@@H]3CC[C@H]12` ; z-score = 0.496
